# Run Description: AUC in CD-1 mouse at 10 mg/kg, po
# Assay type: ADME, organism-based
# Condition: in vivo
Observable: AUC (ng·h/mL)

For orientation, consider the following solved cases.
> print(dat)
                           molecular.string  readout.units  recorded.value
1  O=C(O)/C=C/c1ccc(/C(=C(\c2ccncc2Cl)C2CCC2)c2ccc3[nH]nc(F)c3c2)cc1        ng·h/mL            1800
2  CC/C(=C(/c1ccc(/C=C/C(=O)O)cc1)c1ccc2[nH]ncc2c1C#N)c1ccccc1        ng·h/mL             500
3  N#Cc1cc(Cl)cnc1/C(=C(\c1ccc(/C=C/C(=O)O)cc1)c1ccc2[nH]nc(F)c2c1)C1CCC1        ng·h/mL             250
4  COc1ccc(/C(=C(\c2ccc(/C=C/C(=O)O)cc2)c2ccc3[nH]nc(F)c3c2)C2CCC2)c(Cl)c1        ng·h/mL           20500
5  CC/C(=C(/c1ccc(/C=C/C(=O)O)cc1)c1ccc2[nH]nc(F)c2c1)c1ccccc1        ng·h/mL           14000

P = Cc1cccnc1/C(=C(\c1ccc(/C=C/C(=O)O)cc1)c1ccc2[nH]nc(F)c2c1)C1CCC1
Q = O=C(O)/C=C/c1ccc(/C(=C(\c2ncccc2Cl)C2CCC2)c2ccc3[nH]nc(F)c3c2)cc1
Endpoint returns whichever of P and Q has the numerically higher AUC. Please respond with the label that marks your chosen entry.
Q
(Q: 900 ng·h/mL, P: 190 ng·h/mL)
